From: ChEMBL document CHEMBL4813920

- PROTOCOL_DETAILS: Selectivity index, ratio of CC50 for African green monkey Vero cells to IC50 for antigiardial activity against Giardia intestinalis MSS:0696:1
- Assay type: toxicity
- EXPERIMENTAL_CONTEXT: read-out: Ratio CC50/IC50
READOUT_TYPE: selectivity ratio

COMPOUND: Cc1ncc([N+](=O)[O-])n1CCO [METRONIDAZOLE]
READOUT_TYPE: selectivity ratio
REPORTED_VALUE: > 22

COMPOUND: Cc1ncc([N+](=O)[O-])n1CCOC(=O)Nc1ccccc1
READOUT_TYPE: selectivity ratio
REPORTED_VALUE: > 102

COMPOUND: Cc1ncc([N+](=O)[O-])n1CCOC(=O)NC1CCCCC1
READOUT_TYPE: selectivity ratio
REPORTED_VALUE: > 217

COMPOUND: Cc1ncc([N+](=O)[O-])n1CCOC(=O)Nc1ccc([N+](=O)[O-])cc1
READOUT_TYPE: selectivity ratio
REPORTED_VALUE: > 116

COMPOUND: Cc1ncc([N+](=O)[O-])n1CC(C)O (stereo not given) [SECNIDAZOLE]
READOUT_TYPE: selectivity ratio
REPORTED_VALUE: > 24

----------
Recorded measurements of MIC, one per entry
- Test system: Escherichia coli
- PROTOCOL_DETAILS: Antibacterial activity against Escherichia coli ATCC 35218 incubated for 24 hrs by two fold serial dilution method
- Format: functional
READOUT_TYPE: MIC (µg/mL)

MOLECULE: CC1(C)S[C@@H]2[C@H](NC(=O)Cc3ccccc3)C(=O)N2[C@H]1C(=O)O
REPORTED_VALUE: 3.13
--
MOLECULE: Cc1cc(C)nc(NS(=O)(=O)c2ccc(/N=C/c3ccc(C(=O)OCCn4c([N+](=O)[O-])cnc4C)cc3)cc2)n1
REPORTED_VALUE: 1.56
--
MOLECULE: Cc1ccnc(NS(=O)(=O)c2ccc(/N=C/c3ccc(C(=O)OCCn4c([N+](=O)[O-])cnc4C)cc3)cc2)n1
REPORTED_VALUE: 3.13
--
MOLECULE: NC[C@H]1O[C@H](O[C@H]2[C@H](O)[C@@H](O[C@H]3O[C@H](CO)[C@@H](O)[C@H](N)[C@H]3O)[C@H](N)C[C@@H]2N)[C@H](N)[C@@H](O)[C@@H]1O
REPORTED_VALUE: 1.56
--
MOLECULE: Cc1ncc([N+](=O)[O-])n1CC(C)OC(=O)c1ccc(/C=N/c2ccc(S(=O)(=O)NC(=N)N)cc2)cc1 (stereo not given)
REPORTED_VALUE: 3.13

----------
- TGT: Carbonic anhydrase 9 (Homo sapiens)
- PROTOCOL_DETAILS: Inhibition of recombinant human carbonic anhydrase 9 preincubated with enzyme for 15 mins by phenol red dye based stopped flow CO2 hydration assay
pIC50: −log10 of the molar value.
READOUT_TYPE: pIC50

SMI: Cc1cc(NNS(=O)(=O)c2ccc(/N=C\c3ccc(OCCn4c([N+](=O)[O-])cnc4C)cc3)cc2)no1
READOUT_TYPE: pIC50
REPORTED_VALUE: 6.95
--
SMI: Cc1ncc([N+](=O)[O-])n1CCOc1ccc(/C=N\c2ccc(S(=O)(=O)Nc3nccs3)cc2)cc1
READOUT_TYPE: pIC50
REPORTED_VALUE: 7.03
--
SMI: Cc1ncc([N+](=O)[O-])n1CCOc1ccc(/C=N\c2ccc(S(=O)(=O)NC(=N)N)cc2)cc1
READOUT_TYPE: pIC50
REPORTED_VALUE: 6.87
--
SMI: Cc1ncc([N+](=O)[O-])n1CCOc1cccc(/C=N\c2ccc(S(=O)(=O)Nc3nccs3)cc2)c1
READOUT_TYPE: pIC50
REPORTED_VALUE: 7.42
